B1: HSP90AB1 (parent)
chain: EADKNDKAVKDLVVLLFETALLSS

Variants of: B1
PROCEDURE_TEXT: protein stability index of a GFP-peptide fusion (GPS, HEK-293T) (PSI 1-6); higher = more stable;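 further: lentivirally expressed fusions sorted by FACS into six bins by GFP to DsRed ratio, PSI derived from sequencing read proportions per bin multiplied by bin number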
CONDITION_LABEL: c terminus: a fixed tail appended
Lab note: compare protein stability index against 2. Equal or greater, write condition met. Smaller, write condition not met.

{"columns": ["CHAIN_SEQUENCE", "CATEGORY"],
 "data": [
  ["EADKNDKAVKDIVVLLFETALLSS [L12I]", "condition met"],
  ["EADKNDKAVKDLVVLLFEHALLSS [T19H]", "condition met"],
  ["EADKNDKAVKDLVVLLFETALLQS [S23Q]", "condition not met"],
  ["MADKNDKAVKDLVVLLFETALLSS [E1M]", "condition met"],
  ["EADKNDKAVKDLVVVLFETALLSS [L15V]", "condition not met"],
  ["EADKNDKAVKDLVVLLFETALLKS [S23K]", "condition not met"],
  ["EADKNDKAVKDLVVLLFITALLSS [E18I]", "condition met"],
  ["EADKNDKAVKDLVVLLFETALLSH [S24H]", "condition not met"],
  ["EADKNDKAVKDLVVLLLETALLSS [F17L]", "condition not met"],
  ["EADKNDKAVKDLNVLLFETALLSS [V13N]", "condition met"],
  ["SADKNDKAVKDLVVLLFETALLSS [E1S]", "condition not met"],
  ["EADKNDKAVKDLVVMLFETALLSS [L15M]", "condition not met"],
  ["EADKNDKAVKDLPVLLFETALLSS [V13P]", "condition met"],
  ["EADKNDKAVKPLVVLLFETALLSS [D11P]", "condition not met"],
  ["EADKNDCAVKDLVVLLFETALLSS [K7C]", "condition not met"],
  ["EADKNDKWVKDLVVLLFETALLSS [A8W]", "condition met"],
  ["EADKNDKAVKDLVVLLFETALQSS [L22Q]", "condition met"],
  ["EADKNDKAVKDLVVLLFETALLSD [S24D]", "condition not met"],
  ["EADKNDKAVKDKVVLLFETALLSS [L12K]", "condition met"],
  ["EADKNDKAVKDLVVLLFETALLDS [S23D]", "condition met"]
]}
